Attribution: patent US8785459B2

TESTED_ON: C-Raf (Homo sapiens (Human))
Sequence (P04049 whole entry): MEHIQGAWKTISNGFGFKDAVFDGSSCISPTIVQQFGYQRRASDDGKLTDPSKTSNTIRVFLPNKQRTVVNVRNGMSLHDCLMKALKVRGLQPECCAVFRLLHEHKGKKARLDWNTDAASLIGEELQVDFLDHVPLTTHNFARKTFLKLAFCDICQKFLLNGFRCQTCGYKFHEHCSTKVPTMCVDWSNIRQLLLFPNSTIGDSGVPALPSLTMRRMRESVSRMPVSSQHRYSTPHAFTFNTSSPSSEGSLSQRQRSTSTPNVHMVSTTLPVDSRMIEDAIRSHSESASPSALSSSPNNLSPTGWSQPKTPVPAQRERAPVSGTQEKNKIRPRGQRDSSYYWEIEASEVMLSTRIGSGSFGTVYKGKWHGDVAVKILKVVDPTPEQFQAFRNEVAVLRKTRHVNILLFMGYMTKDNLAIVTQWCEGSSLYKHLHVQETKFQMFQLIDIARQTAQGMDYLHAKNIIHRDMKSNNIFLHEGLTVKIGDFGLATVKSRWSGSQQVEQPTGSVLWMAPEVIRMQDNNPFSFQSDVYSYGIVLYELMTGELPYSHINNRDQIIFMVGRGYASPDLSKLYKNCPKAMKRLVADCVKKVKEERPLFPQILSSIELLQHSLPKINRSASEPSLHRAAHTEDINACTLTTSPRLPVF
EXPERIMENT_NOTES: Raf kinase assay (C-Raf), [33P] incorporation into MEK1(K97R)
Assay type: biochemical
MEASURE: IC50 (nM)

{"COMPOUND": "Oc1cccc(Nc2ncnc3ccc(-c4ccccc4)cc23)c1 [Compound 133, 3-(6-phenylquinazolin-4-ylamino)phenol]", "IC50 [nM]": 6640}
{"COMPOUND": "COc1cc(-c2ccc3nccc(Nc4cccc5[nH]ncc45)c3c2)ccc1O [Compound 103]", "IC50 [nM]": 354}
{"COMPOUND": "CS(=O)(=O)Nc1ccc(-c2ccc3ncnc(Nc4cccc5[nH]ncc45)c3c2)cc1 [Compound 73]", "IC50 [nM]": 1430}

(A) COc1cc(-c2ccc3ncnc(Nc4cccc5[nH]c(=O)[nH]c45)c3c2)ccc1O [Compound 127]
(B) COc1cc(-c2ccc3ncnc(Nc4cccc(NC(=O)C(F)(F)F)c4)c3c2)ccc1O [Compound 45]
**Q:** Kindly identify which of A and B has the larger recorded IC50 value. Lab log: write the label of the selected item as the result.
**A:** A
(A: 8390 nM, B: 835 nM)
